- Procedure Details: activity coefficient (dimensionless); of the first substance listed, at infinite dilution; xn = mol fraction of the nth substance listed
- Recorded Conditions: 354.65 K; 101 kPa; Liquid; Chromatography; x1 = 0

>  <Compound>
CCCO [propan-1-ol] + CCCCCC[n+]1ccn(C)c1.FC(F)(F)C(F)(F)[P-](F)(F)(F)(C(F)(F)C(F)(F)F)C(F)(F)C(F)(F)F

>  <activity coefficient>
1.47

$$$$
>  <Compound>
CCC(C)=O [butanone] + CCCCCC[n+]1ccn(C)c1.FC(F)(F)C(F)(F)[P-](F)(F)(F)(C(F)(F)C(F)(F)F)C(F)(F)C(F)(F)F

>  <activity coefficient>
0.171

$$$$
>  <Compound>
Cc1cccc(C)c1 [1,3-dimethylbenzene] + CCCCCC[n+]1ccn(C)c1.FC(F)(F)C(F)(F)[P-](F)(F)(F)(C(F)(F)C(F)(F)F)C(F)(F)C(F)(F)F

>  <activity coefficient>
1.01

$$$$
>  <Compound>
OCC(F)(F)F [2,2,2-trifluoroethanol] + CCCCCC[n+]1ccn(C)c1.FC(F)(F)C(F)(F)[P-](F)(F)(F)(C(F)(F)C(F)(F)F)C(F)(F)C(F)(F)F

>  <activity coefficient>
0.728

$$$$
>  <Compound>
CC1CCCC1 [methylcyclopentane] + CCCCCC[n+]1ccn(C)c1.FC(F)(F)C(F)(F)[P-](F)(F)(F)(C(F)(F)C(F)(F)F)C(F)(F)C(F)(F)F

>  <activity coefficient>
3.52

$$$$
>  <Compound>
CC(C)CO [2-methyl-1-propanol] + CCCCCC[n+]1ccn(C)c1.FC(F)(F)C(F)(F)[P-](F)(F)(F)(C(F)(F)C(F)(F)F)C(F)(F)C(F)(F)F

>  <activity coefficient>
1.62

$$$$

---

- Procedure Details: activity coefficient (dimensionless); of the first substance listed, at infinite dilution; xn = mol fraction of the nth substance listed
- Recorded Conditions: 312.8 K; 101 kPa; Liquid; Chromatography; x1 = 0

>  <Molecule>
CC(C)O [propan-2-ol] + CCCCCC[n+]1ccn(C)c1.FC(F)(F)C(F)(F)[P-](F)(F)(F)(C(F)(F)C(F)(F)F)C(F)(F)C(F)(F)F

>  <activity coefficient>
2.06

$$$$
>  <Molecule>
C#CCCCCC [1-heptyne] + CCCCCC[n+]1ccn(C)c1.FC(F)(F)C(F)(F)[P-](F)(F)(F)(C(F)(F)C(F)(F)F)C(F)(F)C(F)(F)F

>  <activity coefficient>
2.54

$$$$
>  <Molecule>
CCCCCCCCCCCC [dodecane] + CCCCCC[n+]1ccn(C)c1.FC(F)(F)C(F)(F)[P-](F)(F)(F)(C(F)(F)C(F)(F)F)C(F)(F)C(F)(F)F

>  <activity coefficient>
39.3

$$$$
>  <Molecule>
CCC[N+](=O)[O-] [1-nitropropane] + CCCCCC[n+]1ccn(C)c1.FC(F)(F)C(F)(F)[P-](F)(F)(F)(C(F)(F)C(F)(F)F)C(F)(F)C(F)(F)F

>  <activity coefficient>
0.452

$$$$
>  <Molecule>
C[N+](=O)[O-] [nitromethane] + CCCCCC[n+]1ccn(C)c1.FC(F)(F)C(F)(F)[P-](F)(F)(F)(C(F)(F)C(F)(F)F)C(F)(F)C(F)(F)F

>  <activity coefficient>
0.452

$$$$
>  <Molecule>
CCc1ccccc1 [ethylbenzene] + CCCCCC[n+]1ccn(C)c1.FC(F)(F)C(F)(F)[P-](F)(F)(F)(C(F)(F)C(F)(F)F)C(F)(F)C(F)(F)F

>  <activity coefficient>
0.956

$$$$
